This collection of values is drawn from PubChem BioAssay (NCI).

system: OVCAR-4 ovarian; assay: NCI-60 one-dose screen, 48 h; details: 10 µM unless noted
The panel holds about 83,000 compounds, 20% with a hit somewhere; the sample as a whole holds those more often. Calls of active or inactive are those of the source. The calls were made as follows: active = growth percent below 10; inactive = the rest.
Outcome field: choose from active, inactive

Data request: Check the results log: what was the call for COc1ccc(N=N/N=c2\sc3cc(OC)ccc3n2C)cc1 ?
Data returned: inactive

Data request: Now try O=C1OCc2cccc3cccc1c23 .
Data returned: inactive

Data request: Now try CC(=O)C(=Cc1ccc(C=C(C(C)=O)C(C)=O)cc1)C(C)=O .
Data returned: inactive

Data request: Now try CCCCCCCCCCCCCCCC[N+](C)(CCO)Cc1cnc[nH]1 (centres undefined) .
Data returned: active

Data request: Now try N#Cc1ccc([N+](=O)[O-])o1 .
Data returned: inactive

Data request: Now try CC1OC(OC2C(OC3CCC4(C)C(CCC5(C)C4CC=C4C6CC(C)(C)CCC6(CO)C(O)CC45C)C3(C)C)OC(C(=O)O)C(OC3OC(COC4OC(CO)C(O)C(O)C4O)C(O)C(O)C3O)C2O)C(O)C(O)C1O (centres undefined) .
Data returned: active

Data request: Now try CC(C)c1ccc2nc3ccc(C(=O)NCCN4CCN(c5ccccc5)CC4)cn3c(=O)c2c1 .
Data returned: inactive

Data request: Now try Cn1c2ccccc2c2nnc(N/N=C/c3ccccn3)nc21 .
Data returned: inactive

Data request: Now try NC1=CC(=O)c2ccccc2C1=O .
Data returned: inactive

---

system: MDA-MB-231 breast; experiment: NCI-60 one-dose screen, 48 h; details: 10 µM unless noted
About 83,000 compounds went through this panel and 20% of them were active in at least one assay; those are over-represented in the sample as a whole. Calls of active or inactive are those of the source. The calls were made as follows: active = growth percent below 10; inactive = the rest.
Outcome field: choose from Yes for active, No for inactive

Data request: Check the results log: what was the call for CCC(c1cccc(O)c1)C(CC)c1cccc(O)c1 (stereo unspecified) ?
Data returned: No

Data request: Now try CN(C)c1ccc(/C=N/N=C(\C#N)[S][Sn]([Cl])([c]2ccccc2)[c]2ccccc2)cc1 .
Data returned: Yes

Data request: Now try CC(C)(C)CC(C)(C)c1ccc(OCCSC(=N)N)cc1 .
Data returned: Yes

Data request: Now try COc1ccc2nc3cc(Cl)ccc3c(NCCNc3c4ccc(Cl)cc4nc4ccc(OC)cc34)c2c1 .
Data returned: Yes

Data request: Now try Cc1ccnc2c1ccc1c(C)ccnc12 .
Data returned: No

Data request: Now try O=C1NC(=O)/C(=C/C=C/c2ccccc2)S1 .
Data returned: No

Data request: Now try CN(C)c1ccc(C(=C2C=CC(=[N+](C)C)C=C2)c2ccc(N(C)C)cc2)cc1 (tested in a mixture with another compound) .
Data returned: Yes

Data request: Now try C1=C(c2ccccc2)C(c2ccc(OCCN3CCCCC3)cc2)Oc2ccccc21 (stereo unspecified) .
Data returned: No

Data request: Now try N#Cc1ccc([N+](=O)[O-])o1 .
Data returned: No

Data request: Now try N[C@H](C(=O)O)[C@@H]1CC(Cl)=NO1 .
Data returned: No

Data request: Now try NC(=O)/C=C/C(=O)c1c(Cl)cccc1Cl .
Data returned: Yes

---

tested on: NCI/ADR-RES ovarian; test: NCI-60 one-dose screen, 48 h; conditions: 10 µM unless noted
This is part of a sample that, as a whole, favours compounds with a hit. Of some 83,000 tested, about 20% had one in any assay. Activity calls are given as the source filed them. How the source made its calls: active means growth percent below 10; inactive means the rest.
Outcome field: choose from active, inactive

Data request: Check the results log: what was the call for C1=C(c2ccccc2)C(c2ccc(OCCN3CCCCC3)cc2)Oc2ccccc21 (centres undefined) ?
Data returned: inactive

Data request: Now try CCC(c1cccc(O)c1)C(CC)c1cccc(O)c1 (centres undefined) .
Data returned: inactive

Data request: Now try CCC1OC(OC)C=CC1=O (centres undefined) .
Data returned: inactive

Data request: Now try Oc1ccc(/C=N/NC(=S)Nc2ccccc2)nc1 .
Data returned: active

Data request: Now try CC(C)c1ccc2nc3ccc(C(=O)NCCN4CCN(c5ccccc5)CC4)cn3c(=O)c2c1 .
Data returned: inactive

Data request: Now try C=C(Cl)C(=NC(C)(C)C)Nc1ccccc1C .
Data returned: inactive

Data request: Now try Cc1ccc2nc(-[n+]3cc4ccccc4cc3C)ccc2c1 .
Data returned: inactive

Data request: Now try N#CSCc1ccc(Cl)c(CSC#N)c1 .
Data returned: inactive

Data request: Now try CCC(CC)COC(=O)c1ccc(O)c(O)c1 .
Data returned: inactive

Data request: Now try O[C@H]1[C@H]2c3cc4c(cc3CN3CCC(=C[C@@H]1O)[C@H]23)OCO4 .
Data returned: inactive

Data request: Now try CCOC(=O)/C=C/c1ccc([N+](=O)[O-])o1 .
Data returned: inactive

Data request: Now try N#CC1C(=O)SC2c3ccccc3C(=O)c3ccccc3C12 (centres undefined) .
Data returned: inactive

Data request: Now try Cc1cc2nc(CS)[nH]c2cc1C .
Data returned: inactive

Data request: Now try Cc1cc(C(C)(CC(C)C)c2ccc(O)c(C)c2)ccc1O .
Data returned: inactive

Data request: Now try CC1OC2CC(=O)OC2C2=C1C(=O)c1c(O)cccc1C2=O (centres undefined) .
Data returned: active

Data request: Now try CCOC(=O)c1c(C)[nH]c(CO)c1C .
Data returned: inactive

Data request: Now try CCOC(=O)/C(=C\c1ccc(-c2ccccc2)cc1)C(C)=O .
Data returned: inactive

Data request: Now try COC(=O)[C@@]12OC[C@]34[C@H]([C@@H](O)[C@@H]1O)[C@@]1(C)[C@H](O)C(=O)C=C(C)[C@@H]1C[C@H]3OC(=O)C(OC(C)=O)[C@@H]24 (some centres undefined) .
Data returned: inactive

Data request: Now try CCCCCCC(C)c1ccccc1O (centres undefined) (tested in a mixture with another compound) .
Data returned: inactive

Data request: Now try CCCCCCCCCCCCCCCCOP(=O)([O-])OCC[N+](C)(C)C .
Data returned: inactive

Data request: Now try CCOc1ccc(-c2nc3ccc(-c4nc5ccc(N6CCN(C)CC6)cc5[nH]4)cc3[nH]2)cc1 .
Data returned: inactive

Data request: Now try Cc1ccnc(NC(c2ccccc2)c2ccc3cccnc3c2O)c1 (centres undefined) .
Data returned: inactive

Data request: Now try CC1OC(OC2C(OC3CCC4(C)C(CCC5(C)C4CC=C4C6CC(C)(C)CCC6(CO)C(O)CC45C)C3(C)C)OC(C(=O)O)C(OC3OC(COC4OC(CO)C(O)C(O)C4O)C(O)C(O)C3O)C2O)C(O)C(O)C1O (centres undefined) .
Data returned: active

Data request: Now try NC1=CC(=O)c2ccccc2C1=O .
Data returned: inactive

Data request: Now try N[C@H](C(=O)O)[C@@H]1CC(Cl)=NO1 .
Data returned: inactive

Data request: Now try CNC(=O)N/N=C/c1ccc([N+](=O)[O-])o1 .
Data returned: inactive

Data request: Now try O=C(Nc1cccc(Br)c1)Oc1ccc(Cl)c2cccnc12 .
Data returned: active

Data request: Now try CCN1/C(=C\c2cc[n+](CC)c3ccccc23)C=Cc2ccccc21 .
Data returned: inactive

Data request: Now try COc1ccc2nc3cc(Cl)ccc3c(NCCNc3c4ccc(Cl)cc4nc4ccc(OC)cc34)c2c1 .
Data returned: active

Data request: Now try Cn1c2c(c3ccccc31)CCN1C[C@@H]3CCCC[C@H]3C[C@@H]21 .
Data returned: active

Data request: Now try COc1cc(/C=C(/C)C[N+](=O)[O-])ccc1O .
Data returned: inactive

Data request: Now try N#Cc1ccc([N+](=O)[O-])o1 .
Data returned: inactive

Data request: Now try CN(C)c1ccc(/C=N/N=C(\C#N)[S][Sn]([Cl])([c]2ccccc2)[c]2ccccc2)cc1 .
Data returned: inactive

Data request: Now try O=C1c2ccccc2C(=O)c2sc(Nc3cccc(Cl)c3)nc21 .
Data returned: active

Data request: Now try O=C(Nc1ccccc1)c1cc(Cl)ccc1O .
Data returned: inactive

Data request: Now try S=C(N/N=C/c1ccccn1)Nc1ccccn1 .
Data returned: active

Data request: Now try Cc1c2ccccc2c(C)c2c1ccc1ccccc12 .
Data returned: inactive

Data request: Now try CC1(C)CC([P+](c2ccccc2)(c2ccccc2)c2ccccc2)=NN1 .
Data returned: inactive

Data request: Now try CC(C)(C)c1ccc(O)c(C2CCCCC2)c1 .
Data returned: inactive
